Assay Details: in vitro
Conditions: human, hela cells, % viability
Labelling: viability at 28.5 h, 10 µM reported below 90% becomes T; at or above becomes F.

Enquiry: Determine if CC1CCc2onc(C(=O)Nc3ccncc3)c2C1 (stereo not shown) [CBK288080] shows viability at 28.5 h, 10 µM strictly lower than 90%.
Return: F

Enquiry: Below 90% on viability at 28.5 h, 10 µM? Entry Cc1nn(-c2ccccc2)c2c1C(c1cnn(C)c1)SCC(=O)N2 (stereo not shown) [CBK287896]
Return: F

Enquiry: Given the entry Cc1ccc(-c2nn(-c3ccccc3)cc2C2CC(c3cccs3)=NN2C(=O)CCC(=O)O)cc1 (stereo not shown) [CBK296126] , would its reported viability at 28.5 h, 10 µM be below 90%?
Return: F

Enquiry: Consider the compound C=CCn1c(-c2sc(NC(=O)c3ccc(Cl)cc3F)nc2C)n[nH]c1=S [CBK295361] . Is its viability at 28.5 h, 10 µM strictly less than 90%?
Return: F

Enquiry: For Cn1nc(C2CCN(C(=O)C3CCCCC3)CC2)c2cccnc21 [CBK284897] , is the recorded viability at 28.5 h, 10 µM below the cut-off of 90%?
Return: T

Enquiry: Lab log: compare recorded viability at 28.5 h, 10 µM with 90%; is it strictly lower for CC(=O)NCCSc1cncc(NC(C)C)n1 [CBK105291] ?
Return: T

Enquiry: # strict comparison: is reported viability at 28.5 h, 10 µM < 90%? input = COc1ccccc1CNC(=O)c1cnc2scc(C)n2c1=O [CBK287293]
Return: F

====

Assignment: determine reported viability at 28.5 h, 10 µM for the given compounds.
Assay Details: in vitro
Conditions: human, hela cells, % viability

Enquiry: Return value of viability at 28.5 h, 10 µM for input CCS(=O)(=O)n1nc(-c2ccc(OC)cc2)nc1SC , no commentary.
Return: 103%

Enquiry: Quickly give me recorded viability at 28.5 h, 10 µM for O=C(Nc1ccc(F)cc1)Nc1cccnc1Cl
Return: 90.4%

Enquiry: For the compound COc1ccc(CC(=O)Nc2ccc(-c3nnc(-c4ccccc4)o3)cc2)cc1OC , give its measured viability at 28.5 h, 10 µM value.
Return: 94.9%

Enquiry: Identify measured viability at 28.5 h, 10 µM associated with Cc1cc2c(cc1Cl)C(=O)CC1(CCN(C(=O)C3CC(=O)OC3(C)C)CC1)O2 (stereo not drawn)
Return: 94.8%

Enquiry: Output viability at 28.5 h, 10 µM of CCC(C)c1ccc(NC(=S)NCCn2cc(Cl)cn2)cc1 (stereo not drawn)
Return: 90.7%

Enquiry: For CCNC(=O)N1Cc2nc[nH]c2C[C@H]1C(=O)NCc1ccc(OC)cc1 , write its viability at 28.5 h, 10 µM.
Return: 115%

Enquiry: # return recorded viability at 28.5 h, 10 µM for entry CCOCCc1nsc(NS(=O)(=O)c2cccc(Cl)c2C)n1
Return: 102%

Enquiry: Report measured viability at 28.5 h, 10 µM; entry is CCc1cc(C(=O)OC)c(NC(=O)CC2Nc3cccc4cccc(c34)NC2=O)s1 (stereo not drawn)
Return: 59.8%

Enquiry: Give the reported value of viability at 28.5 h, 10 µM for this record: CC(=O)Nc1ccc2nc(NC(=O)c3ccc(C)cc3)sc2c1
Return: 103%

Enquiry: Provide viability at 28.5 h, 10 µM value for the following compound: Cc1c(N)c(=O)n2nc(C(F)(F)F)nc2n1C
Return: 90.4%

Enquiry: State, in one line, measured viability at 28.5 h, 10 µM of CCN(CC)C(=O)CN1CC=C(c2ccc(C)o2)CC1
Return: 100%

Enquiry: Return viability at 28.5 h, 10 µM for the following compound: O=C(O)c1ccc(/C=C/C(=O)c2ccc3c(c2)OCCO3)cc1
Return: 89.1%

Enquiry: For the compound CCOC(=O)c1cnn2c(O)cc(CN3CCCC3c3ccsc3)nc12 (stereo not drawn) , give its reported viability at 28.5 h, 10 µM.
Return: 96.1%

Enquiry: Answer with the recorded viability at 28.5 h, 10 µM of COc1ccccc1NC(=O)c1ccc(-c2nnc(-c3ccccc3)o2)cc1 only.
Return: 107%

Enquiry: Supply viability at 28.5 h, 10 µM value. Item: Nc1ncc(-c2cccc3cccnc23)nc1NCc1ccncc1
Return: 87.4%

Enquiry: Provide measured viability at 28.5 h, 10 µM value, entry: Cc1nc(S(=O)(=O)N2CCOC3(CCCC3)C2)cn1C
Return: 109%

Enquiry: # return recorded viability at 28.5 h, 10 µM for input CNC(=S)N1CCN(c2nccnc2NS(=O)(=O)C2CC2)CC1
Return: 96.2%

Enquiry: Specify reported viability at 28.5 h, 10 µM for the compound shown: CCc1nc2ccc(C(=O)N3CCC(O)(Cc4ccccc4)CC3)cn2c1N(CC)C(=O)CCC1CCCC1
Return: 88.1%

Enquiry: Input O=C(c1ccncc1)N1CCCC1(CO)Cc1ccccc1 (stereo not drawn) , output reported viability at 28.5 h, 10 µM.
Return: 96.5%

Enquiry: Consider the compound Cc1ccc(-c2cc(C(=O)NCc3cccnc3)c3ccccc3n2)cc1C . State its measured viability at 28.5 h, 10 µM.
Return: 97.5%

Enquiry: In one line, give reported viability at 28.5 h, 10 µM of the entry COC(=O)COc1ccc(NC(=O)c2ccc([N+](=O)[O-])c(C)c2)cc1 .
Return: 103%

Enquiry: Check the records and state viability at 28.5 h, 10 µM for Cc1csc(C2CN(Cc3cn(C)c(=O)n(C)c3=O)CCO2)n1 (stereo not drawn)
Return: 86.6%

Enquiry: Annotate the compound COCC(=O)NC(Cc1ccsc1)c1nc(C)c(C)s1 (stereo not drawn) with its measured viability at 28.5 h, 10 µM.
Return: 100%

Enquiry: Provide viability at 28.5 h, 10 µM value for the following compound: CC1(C)CC(NC2=CC(=O)CC2)CC(C)(C)N1
Return: 115%

Enquiry: Provide one value: measured viability at 28.5 h, 10 µM of Cn1c(CO)nnc1[C@H]1C[C@@H](NC(=O)COc2ccc(Cl)c(Cl)c2)C1
Return: 101%

Enquiry: Supply viability at 28.5 h, 10 µM value. Item: CCOC(=O)CSc1nnc(-c2ccc(Cl)cc2)o1
Return: 105%

Enquiry: Give the measured viability at 28.5 h, 10 µM for COC1C(O)C(CO)OC1n1cc(I)c(=O)[nH]c1=O (stereo not drawn)
Return: 95.1%

Enquiry: Identify viability at 28.5 h, 10 µM associated with the compound COc1ccc(-c2nnc([C@H]3CCN(Cc4ccccn4)C3)o2)cc1
Return: 93.4%

Enquiry: Return viability at 28.5 h, 10 µM for the following compound: O=C(O)c1cc(C(=O)O)c2ccccc2n1
Return: 82.1%

Enquiry: Answer with the recorded viability at 28.5 h, 10 µM for the compound listed here: CN(C)CCCNC(=O)c1cc2cc(Cl)cc(Cl)c2oc1=O [CBK269132C]
Return: 90.2%

Enquiry: Please supply the value of reported viability at 28.5 h, 10 µM for the item COc1ccc(C(=O)NCc2ccc(S(N)(=O)=O)cc2)cc1[N+](=O)[O-]
Return: 105%

Enquiry: # return recorded viability at 28.5 h, 10 µM for entry Cc1ccc(C2=NO[C@@](CC(=O)O)(C(=O)Nc3ccc4c(c3)OCCO4)C2)cc1
Return: 85.1%

Enquiry: Return the recorded viability at 28.5 h, 10 µM value; entry: O=c1c2cnn(-c3ccccc3)c2nc(Cc2ccccc2)n1-c1cccc2ccccc12
Return: 82.1%

Enquiry: Give recorded viability at 28.5 h, 10 µM. Cc1csc(C(Cc2cccs2)NC(=O)C2CCC(=O)N2)n1 (stereo not drawn)
Return: 104%

Enquiry: // Input: Cc1c(C(=O)N2CCCCC2C(N)=O)nnn1-c1cccc(Cl)c1 (stereo not drawn) . Output its viability at 28.5 h, 10 µM only.
Return: 106%

Enquiry: State, in one line, measured viability at 28.5 h, 10 µM of CCc1c(C)nc2c(C)cccc2c1SCC(=O)O
Return: 87.6%

Enquiry: Look up and state reported viability at 28.5 h, 10 µM for COc1cc(CN2CCN(Cc3cccnc3)CC2)cc(OC)c1O [CBK264274G]
Return: 102%

Enquiry: // fetch viability at 28.5 h, 10 µM given entry O=C(c1ccc(C#CC2(O)CCCCC2)cc1)N1CCC(C(O)(c2ccccc2)c2ccccc2)CC1
Return: 84.7%

Enquiry: Provide viability at 28.5 h, 10 µM value for the following compound: Cc1ccc(NC(=O)c2cscn2)c(C)n1
Return: 102%
